- assayInfo: AUClast in C57BL/6 mouse at 3 mg/kg, po
- Assay type: ADME, organism-based
- setupConditions: in vivo
Please provide measured AUC(0-t) for the entries that follow.
Give bare numbers, in µM·h.

// solved cases for AUC(0-t) follow
{"compound": "CCN1C[C@H](Oc2ccc3c(c2)CN(C2CCC(=O)NC2=O)C3=O)CC[C@@H]1C (some centres undefined)", "AUC(0-t) [µM·h]": 0.377}
{"compound": "CCN1C[C@H](C)C[C@@H](Oc2ccc3c(c2)CN(C2CCC(=O)NC2=O)C3=O)C1 (stereo in doubt; 10)", "AUC(0-t) [µM·h]": 1.12}
{"compound": "CCN1CCCC[C@@H]1COc1ccc2c(c1)CN(C1CCC(=O)NC1=O)C2=O (some centres undefined)", "AUC(0-t) [µM·h]": 0.713}

// next entry
Problem: Record request: AUC(0-t) value, item C[C@@H](Oc1ccc2c(c1)CN(C1CCC(=O)NC1=O)C2=O)[C@H]1CCCCN1C (some centres undefined)
Solution: 0.115

---

- system: Protein cereblon/Protein Wiz (Homo sapiens, UniProt Q96SW2+O95785)
- Sequence (Q96SW2 whole entry): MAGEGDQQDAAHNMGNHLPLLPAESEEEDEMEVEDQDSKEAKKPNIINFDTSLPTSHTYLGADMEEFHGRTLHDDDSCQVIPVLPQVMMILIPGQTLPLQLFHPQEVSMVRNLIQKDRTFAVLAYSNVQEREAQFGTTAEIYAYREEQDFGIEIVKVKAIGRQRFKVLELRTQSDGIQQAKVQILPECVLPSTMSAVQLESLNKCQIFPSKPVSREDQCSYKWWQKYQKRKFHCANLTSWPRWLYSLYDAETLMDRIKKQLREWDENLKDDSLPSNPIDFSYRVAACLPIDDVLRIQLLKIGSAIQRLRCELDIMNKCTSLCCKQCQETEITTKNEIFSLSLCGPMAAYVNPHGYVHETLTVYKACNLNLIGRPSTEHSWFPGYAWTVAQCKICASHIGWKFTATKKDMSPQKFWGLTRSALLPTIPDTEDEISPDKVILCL
- Sequence (O95785 whole entry): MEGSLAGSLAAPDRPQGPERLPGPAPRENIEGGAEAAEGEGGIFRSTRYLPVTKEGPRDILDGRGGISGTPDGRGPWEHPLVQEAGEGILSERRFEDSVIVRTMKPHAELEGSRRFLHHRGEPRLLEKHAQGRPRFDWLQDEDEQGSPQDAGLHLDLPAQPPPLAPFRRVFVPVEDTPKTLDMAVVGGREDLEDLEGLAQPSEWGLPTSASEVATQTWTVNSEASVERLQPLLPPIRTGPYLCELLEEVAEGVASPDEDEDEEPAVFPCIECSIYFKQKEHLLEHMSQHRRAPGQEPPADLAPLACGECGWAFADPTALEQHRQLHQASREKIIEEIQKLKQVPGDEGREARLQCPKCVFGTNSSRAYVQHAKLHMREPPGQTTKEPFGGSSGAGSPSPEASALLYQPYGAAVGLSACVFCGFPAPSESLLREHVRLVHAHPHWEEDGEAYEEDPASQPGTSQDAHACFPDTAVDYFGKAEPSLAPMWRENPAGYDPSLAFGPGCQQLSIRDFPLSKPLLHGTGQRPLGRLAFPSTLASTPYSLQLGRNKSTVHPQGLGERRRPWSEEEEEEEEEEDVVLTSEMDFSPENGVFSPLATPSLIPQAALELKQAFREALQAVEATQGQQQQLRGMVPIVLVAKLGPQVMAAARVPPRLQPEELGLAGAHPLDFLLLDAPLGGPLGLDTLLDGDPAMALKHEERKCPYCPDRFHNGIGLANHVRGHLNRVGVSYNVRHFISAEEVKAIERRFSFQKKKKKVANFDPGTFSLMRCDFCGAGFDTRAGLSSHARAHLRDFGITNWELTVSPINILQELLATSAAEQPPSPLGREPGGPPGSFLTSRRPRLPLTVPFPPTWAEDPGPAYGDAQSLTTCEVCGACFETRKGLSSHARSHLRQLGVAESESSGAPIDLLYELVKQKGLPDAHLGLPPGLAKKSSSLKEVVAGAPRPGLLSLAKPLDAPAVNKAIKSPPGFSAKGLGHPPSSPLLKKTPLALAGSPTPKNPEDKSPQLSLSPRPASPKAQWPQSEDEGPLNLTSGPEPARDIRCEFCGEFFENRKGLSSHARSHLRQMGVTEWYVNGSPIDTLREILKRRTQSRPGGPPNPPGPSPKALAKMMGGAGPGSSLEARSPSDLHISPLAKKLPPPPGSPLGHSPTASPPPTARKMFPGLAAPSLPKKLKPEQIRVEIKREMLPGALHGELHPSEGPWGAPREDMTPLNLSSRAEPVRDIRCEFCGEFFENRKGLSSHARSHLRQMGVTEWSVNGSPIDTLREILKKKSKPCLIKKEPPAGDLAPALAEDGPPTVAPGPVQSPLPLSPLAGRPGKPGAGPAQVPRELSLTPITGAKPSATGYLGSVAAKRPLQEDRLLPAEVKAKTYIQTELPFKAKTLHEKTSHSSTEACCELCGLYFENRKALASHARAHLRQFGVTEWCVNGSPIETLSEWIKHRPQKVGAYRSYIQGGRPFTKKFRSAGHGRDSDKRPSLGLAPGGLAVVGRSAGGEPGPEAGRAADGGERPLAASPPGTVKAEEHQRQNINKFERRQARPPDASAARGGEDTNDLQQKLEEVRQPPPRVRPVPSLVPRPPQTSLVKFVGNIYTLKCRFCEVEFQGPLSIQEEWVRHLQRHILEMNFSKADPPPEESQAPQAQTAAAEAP
- assayInfo: Molecular glue activity at CRBN/HiBiT-tagged WIZ (unknown origin) expressed in HEK293T cells assessed as induction of WIZ degradation incubated for 18 hrs by Nano-Glo HiBiT-Lytic reagent based luminescence plate reader analysis
- Type: cell-based
Please provide measured DC50 for the entries that follow.
One number for each entry, in nM.

// solved cases for DC50 follow
{"compound": "CCN1C[C@H](C)C[C@@H](Oc2ccc3c(c2)CN(C2CCC(=O)NC2=O)C3=O)C1 (stereo in doubt; 10)", "endpointLabel": "DC50", "recordedValue": 3}
{"compound": "CCN1CCC[C@@H](Oc2ccc3c(c2)CN(C2CCC(=O)NC2=O)C3=O)C1 (some centres undefined)", "endpointLabel": "DC50", "recordedValue": 26}
{"compound": "CCN1C[C@H](Oc2ccc3c(c2)CN(C2CCC(=O)NC2=O)C3=O)CC[C@H]1C (some centres undefined)", "endpointLabel": "DC50", "recordedValue": 105}

// next entry
Problem: Record request: DC50 value, item CCN1C[C@H](C)C[C@@H](Oc2ccc3c(c2)CN(C2CCC(=O)NC2=O)C3=O)C1 (mixture of isomers)
Solution: 13

---

- system: Protein cereblon/Sal-like protein 4 (Homo sapiens, UniProt Q96SW2+Q9UJQ4)
- Sequence (Q96SW2 whole entry, looked up): as the sequence (Q96SW2 whole entry) above
- Sequence (Q9UJQ4 whole entry, looked up): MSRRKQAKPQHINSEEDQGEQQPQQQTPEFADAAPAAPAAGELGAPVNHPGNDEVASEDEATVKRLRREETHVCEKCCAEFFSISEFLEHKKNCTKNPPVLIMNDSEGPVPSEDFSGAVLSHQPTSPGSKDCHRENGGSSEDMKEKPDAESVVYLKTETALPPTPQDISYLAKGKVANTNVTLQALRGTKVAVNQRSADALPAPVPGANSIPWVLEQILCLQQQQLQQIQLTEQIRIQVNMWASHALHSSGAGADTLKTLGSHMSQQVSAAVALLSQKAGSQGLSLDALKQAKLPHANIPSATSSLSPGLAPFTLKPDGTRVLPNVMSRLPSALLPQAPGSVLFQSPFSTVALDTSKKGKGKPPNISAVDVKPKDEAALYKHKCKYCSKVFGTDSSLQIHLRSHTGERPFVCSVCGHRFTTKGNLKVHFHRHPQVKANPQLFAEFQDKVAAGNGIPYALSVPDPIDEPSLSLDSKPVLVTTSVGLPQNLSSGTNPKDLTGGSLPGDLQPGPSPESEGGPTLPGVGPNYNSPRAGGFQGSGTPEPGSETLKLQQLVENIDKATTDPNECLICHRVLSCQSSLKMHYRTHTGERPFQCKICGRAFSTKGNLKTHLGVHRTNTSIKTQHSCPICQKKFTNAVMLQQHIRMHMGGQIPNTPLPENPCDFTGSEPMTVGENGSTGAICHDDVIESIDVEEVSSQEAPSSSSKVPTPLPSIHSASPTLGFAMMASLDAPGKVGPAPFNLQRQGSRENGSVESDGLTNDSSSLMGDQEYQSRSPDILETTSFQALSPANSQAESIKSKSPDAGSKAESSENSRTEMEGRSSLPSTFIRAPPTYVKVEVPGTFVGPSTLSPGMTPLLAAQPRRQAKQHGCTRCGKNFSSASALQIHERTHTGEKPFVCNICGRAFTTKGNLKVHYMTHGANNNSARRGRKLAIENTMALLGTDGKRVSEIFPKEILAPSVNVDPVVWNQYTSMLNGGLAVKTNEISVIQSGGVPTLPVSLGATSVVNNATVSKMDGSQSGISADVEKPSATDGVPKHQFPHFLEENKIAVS
- assayInfo: Molecular glue activity at CRBN/HiBiT-tagged SALL4 (unknown origin) expressed in human GripTite 293 MSR cells assessed as induction of SALL4 degradation incubated for 20 hrs by Nano-Glo HiBiT-Lytic reagent based luminescence plate reader analysis relative to control
- Format: cell-based
- Set-up: concentration or dose not given beside the values
Please provide measured Activity for the entries that follow.
Please answer using a numeric value trailed by its unit.

// solved cases for Activity follow
{"molecule": "CCN1C[C@@H](C)C[C@@H](Oc2ccc3c(c2)CN(C2CCC(=O)NC2=O)C3=O)C1 (mixture of isomers)", "Activity": "32%"}
{"molecule": "CCN1C[C@H](Oc2ccc3c(c2)CN(C2CCC(=O)NC2=O)C3=O)CC[C@@H]1C (stereo not given in full)", "Activity": "32%"}
{"molecule": "CCN1C[C@H](Oc2ccc3c(c2)CN(C2CCC(=O)NC2=O)C3=O)CC[C@H]1C (stereo not given in full)", "Activity": "27%"}

Please state, for each entry, its recorded Activity.
1. CCN1CCC[C@@H](Oc2ccc3c(c2)CN(C2CCC(=O)NC2=O)C3=O)C1 (stereo not given in full)
2. CCN1C[C@H](C)C[C@@H](Oc2ccc3c(c2)CN(C2CCC(=O)NC2=O)C3=O)C1 (mixture of isomers)

Solution:
1. 28%
2. 15%
